biological target: wild-type ALK2 (aa172-499) (Homo sapiens (Human), UniProt Q04771); assay: ADPGlo biochemical autophosphorylation assay, ALK2; settings: 15 uM ATP
Sequence (Q04771 172-499): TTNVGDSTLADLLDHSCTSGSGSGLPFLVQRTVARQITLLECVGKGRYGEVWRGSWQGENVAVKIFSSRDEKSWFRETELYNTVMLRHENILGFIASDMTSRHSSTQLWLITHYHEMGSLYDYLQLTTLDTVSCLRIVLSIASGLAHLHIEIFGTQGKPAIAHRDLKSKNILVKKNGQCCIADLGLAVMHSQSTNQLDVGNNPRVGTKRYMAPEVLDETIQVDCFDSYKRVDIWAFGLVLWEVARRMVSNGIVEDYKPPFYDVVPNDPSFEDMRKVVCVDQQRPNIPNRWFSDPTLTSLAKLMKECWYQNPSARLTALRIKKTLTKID
Kindly supply the reported pIC50 values for the records listed here.
Scale explanation: pIC50 corresponds to minus log10 of a concentration expressed in moles per litre.

Indicate the recorded pIC50 value for this molecule: CC(C)n1cc(-c2cc(-c3ccc4c(c3)CC(=O)N4C)cnc2N)ccc1=O [Example 42]
6.34

Quote pIC50 reported for CCCN1C(=O)Cc2cc(-c3cncc(-c4ccc(=O)n(C(C)C)c4)c3)ccc21 [Example 25] please.
7.00

Give the measured pIC50 for COCCN1C(=O)Cc2cc(-c3cncc(-c4ccc(=O)n(C(C)C)c4)c3)ccc21 [Example 29]
6.85

Supply recorded pIC50 for CC(C)n1cc(-c2cncc(-c3ccc4c(c3)CC(=O)N4C)c2)ccc1=O [Example 1] here.
6.96

Recall and state the measured pIC50 for Cc1cc(-c2cncc(-c3ccc4c(c3)CC(=O)N4C)c2)cn(C(C)C)c1=O [Example 3] .
7.01

Answer with the recorded pIC50 of COCCN1C(=O)Cc2cc(-c3cncc(-c4ccc(=O)n(C(C)C)c4)c3)cnc21 [Example 27] only.
5.77

Return value of pIC50 for input CC(C)n1cc(-c2cncc(-c3ccc4c(c3)CCC(=O)N4C)c2)ccc1=O [Example 28] , no commentary.
7.51

###

What IC50 was measured for each of the following?
Number first, unit second.

Specify the recorded IC50 for CC(C)n1cc(-c2cncc(-c3ccc4c(c3)CC(=O)N4)c2)ccc1=O , system: ALK1 (aa166-493) (Homo sapiens (Human)).
Sequence (P37023 166-493): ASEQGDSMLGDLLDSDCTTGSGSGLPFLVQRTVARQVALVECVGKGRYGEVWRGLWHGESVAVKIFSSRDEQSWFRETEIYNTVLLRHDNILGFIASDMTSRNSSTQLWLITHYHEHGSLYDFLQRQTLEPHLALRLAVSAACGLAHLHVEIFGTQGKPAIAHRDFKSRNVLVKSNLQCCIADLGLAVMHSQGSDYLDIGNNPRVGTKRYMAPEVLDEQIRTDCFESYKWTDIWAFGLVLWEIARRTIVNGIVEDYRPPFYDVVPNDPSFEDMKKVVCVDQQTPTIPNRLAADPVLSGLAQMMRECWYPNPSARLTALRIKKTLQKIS
1100 nM

State, for ALK1 (aa166-493) (Homo sapiens (Human)), measured IC50 of the molecule listed here: CCC(CC)CN1C(=O)Cc2cc(-c3cncc(-c4ccc(=O)n(C(C)C)c4)c3)ccc21
900 nM

Fetch value of IC50 on ALK1 (aa166-493) (Homo sapiens (Human)) for CCc1cc(-c2cncc(-c3ccc4c(c3)CC(=O)N4C)c2)cn(C(C)C)c1=O .
900 nM

Look up and report IC50, with ALK1 (aa166-493) (Homo sapiens (Human)) as system, for CC(C)n1cc(-c2cncc(-c3ccc4c(c3)CC(=O)N4CCCO)c2)ccc1=O
1100 nM

Quote ALK1 (aa166-493) (Homo sapiens (Human)) IC50 for entry CC1C(=O)Nc2cc(-c3cncc(-c4ccc(=O)n(C(C)C)c4)c3)ccc21 (stereo not shown) .
760 nM

Fetch value of IC50 on ALK1 (aa166-493) (Homo sapiens (Human)) for CC(C)n1cc(-c2cncc(-c3cc4c(cc3F)N(C)C(=O)C4)c2)ccc1=O .
770 nM

# lookup: ALK1 (aa166-493) (Homo sapiens (Human)) IC50, key = CCC(C)n1cc(-c2cncc(-c3ccc4c(c3)CC(=O)N4C)c2)ccc1=O (stereo not shown)
1200 nM

The reported measurements were obtained from patent US11160797B2.
